Assay: Solubilization in intravenous formulation
Format: physicochemical
Conditions: aqueous with cosolvent or surfactant or cyclodextrin; 5% Cremophor and 5% ethanol in water
readout.type: solubility

>>> df
                              smiles_record        result
0  Cc1nccc2c1[nH]c1ccc(-c3cc(Cl)cc(Cl)c3)cc12  ≤ 3300 µg/mL

---

Assay: Pharmacokinetics after intravenous injection, plasma concentration
Type: in vivo
Settings: mouse, plasma; mice, 15 mg/kg intravenous, 1 minute after injection
readout.type: concentration at 1 min (µg/mL)

>>> print(df.to_string())
                              smiles_record  measurement_units  numeric_readout
0  Cc1nccc2c1[nH]c1ccc(-c3cc(Cl)cc(Cl)c3)cc12              µg/mL               60

---

Test: Pharmacokinetics after intravenous injection, plasma concentration
Assay type: in vivo
Conditions: mouse, plasma; mice, 15 mg/kg intravenous, 20 minutes
readout.type: concentration at 20 min (ng/mL)

                              smiles_record             readout_type  measurement_units  numeric_readout
0  Cc1nccc2c1[nH]c1ccc(-c3cc(Cl)cc(Cl)c3)cc12  concentration at 20 min              ng/mL             8000

---

Assay: Pharmacokinetics after intravenous injection, plasma concentration
Format: in vivo
Details: mouse, plasma; mice, 15 mg/kg intravenous, 8 hours
readout.type: concentration at 8 h (ng/mL)

                              smiles_record  numeric_readout
0  Cc1nccc2c1[nH]c1ccc(-c3cc(Cl)cc(Cl)c3)cc12             3000
